Assay: In vitro disulfide cleavage and immolation by incubation with cysteine or glutathione (LC/MS)
Type: physicochemical
Settings: 4 mM GSH, pH 7.0, 37° C., 1 h
readout_name: Percentage of all products (%)
Provide only the numeric value, understood in %.

Ask: I'd like to know its Percentage of all products. The compound in question is C=C1CC2C=Nc3cc(OCCCCCOc4cc5c(cc4OC)C(=O)N4CC(=C)CC4C(O)N5C(=O)OCC(C)S)c(OC)cc3C(=O)N2C1 (stereo not shown)
Reply: 2.6

Ask: Another compound to check: C=C1C[C@H]2C=Nc3cc(OCCCCCOc4cc5c(cc4OC)C(=O)N4CC(=C)C[C@H]4C(O)N5C(=O)OCC4(S)CCC4)c(OC)cc3C(=O)N2C1 (stereo partly shown)
Reply: 2.3

Ask: Next record, please: C=C1C[C@H]2C=Nc3cc(OCCCCCOc4cc5c(cc4OC)C(=O)N4CC(=C)C[C@H]4C(O)N5C(=O)OCC4(SSC[C@H](NC(=O)CC[C@H](N)C(=O)O)C(=O)NCC(=O)O)CC4)c(OC)cc3C(=O)N2C1 (stereo partly shown)
Reply: 1.1

Ask: Same thing, different compound: C=C1C[C@H]2C=Nc3cc(OCCCCCOc4cc5c(cc4OC)C(=O)N4CC(=C)C[C@H]4C(O)N5C(=O)OCC4(SSC[C@H](NC(=O)CC[C@H](N)C(=O)O)C(=O)NCC(=O)O)CCC4)c(OC)cc3C(=O)N2C1 (stereo partly shown) [Compound 12b]
Reply: 1.6
